- system_tested: human Werner helicase (WRN-BV08, Uniprot Q14191, amino acids 517-1235 with L1074F point mutation) (Homo sapiens, UniProt Q14191, L1074F)
- Construct: Uniprot Q14191, amino acids 517-1235 with L1074F point mutation; TEV-cleavable 8×His (C, cleaved yes); made in house; host or cells: Sf9 insect cells (baculovirus)
- Sequence (Q14191 with tags, fused parts or gaps L1074F limits assumed): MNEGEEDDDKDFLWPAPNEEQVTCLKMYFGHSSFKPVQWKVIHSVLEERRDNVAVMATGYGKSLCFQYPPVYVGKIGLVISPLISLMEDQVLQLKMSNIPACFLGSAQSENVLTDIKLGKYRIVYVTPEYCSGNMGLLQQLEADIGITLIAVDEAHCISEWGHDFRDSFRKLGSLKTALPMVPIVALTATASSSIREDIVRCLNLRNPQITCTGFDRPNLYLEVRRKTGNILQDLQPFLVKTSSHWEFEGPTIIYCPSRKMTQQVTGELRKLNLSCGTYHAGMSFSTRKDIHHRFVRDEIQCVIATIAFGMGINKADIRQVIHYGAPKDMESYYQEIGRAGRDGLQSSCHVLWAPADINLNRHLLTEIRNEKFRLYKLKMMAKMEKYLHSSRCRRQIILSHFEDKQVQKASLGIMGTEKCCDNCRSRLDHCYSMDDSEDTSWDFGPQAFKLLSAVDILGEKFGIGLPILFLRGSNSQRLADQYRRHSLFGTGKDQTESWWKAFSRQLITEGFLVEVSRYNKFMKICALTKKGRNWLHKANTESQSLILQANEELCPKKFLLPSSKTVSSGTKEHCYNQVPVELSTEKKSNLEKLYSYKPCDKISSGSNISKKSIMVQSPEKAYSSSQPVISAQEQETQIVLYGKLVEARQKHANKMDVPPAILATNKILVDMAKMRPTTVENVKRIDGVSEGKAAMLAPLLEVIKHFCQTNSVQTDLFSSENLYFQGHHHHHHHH
- assay_procedure: WRN (BV08) ADP-Glo Assay
- Format: biochemical
- condition_label: 0.15 nM WRN, 5 μM ATP, 0.1 nM DNA duplex, 15 min preincubation, 60 min at 25° C., pH 7.5, 1% DMSO; read-out: ADP-Glo_hWRN_IC50
This section presents compounds with their documented IC50 values.

These solved cases illustrate the format of a correct answer.
>  <compound>
COc1cc(CN(C(=O)Cc2cnn(-c3ccc(Cl)cc3)c2)C2C=CS(=O)(=O)C2)ccn1 (centres unmarked) [I-379]

>  <IC50>
> 50 µM

$$$$
>  <compound>
O=C(Cc1ccc(-c2cccc(F)c2)cc1F)N(Cc1ccncc1)C1C=CS(=O)(=O)C1 (centres unmarked) [I-120]

>  <IC50>
0.5 to 5 µM

$$$$

Looking for the measured IC50 of Cc1cccn1-c1ccc(CC(=O)N(Cc2ccc(C(=O)N3CCN(C(=O)CCCc4cn(Cc5ccc(NC(=O)CCOCCOCCOCCOCCNC(=O)CCCC[C@@H]6SC[C@@H]7NC(=O)N[C@@H]76)cn5)nn4)CC3)cc2)C2C=CS(=O)(=O)C2)c(F)c1 (some centres unmarked) [II-2] , can you help?
0.5 to 5 µM

Looking for the measured IC50 of O=C(Cc1ccc2c(c1)CCOC2)N(Cc1ccncc1)C1C=CS(=O)(=O)C1 (centres unmarked) [I-630] , can you help?
> 50 µM

Looking for the measured IC50 of COc1cc(C(C)N(C(=O)Cn2cc(-c3cc(F)c(F)c(F)c3)cn2)C2C=CS(=O)(=O)C2)ccn1 (single isomer, unassigned) [I-831] , can you help?
0.5 to 5 µM

Looking for the measured IC50 of CS(=O)(=O)N1CCN(C(=O)C(C(=O)N(Cc2ccncc2)C2C=CS(=O)(=O)C2)c2ccc(-c3ccc(F)cc3)cc2)CC1 (centres unmarked) [I-666] , can you help?
5 to 10 µM

Looking for the measured IC50 of CC(C)(O)c1csc(CN(C(=O)Cc2ccc(S(F)(F)(F)(F)F)cc2)C2C=CS(=O)(=O)C2)n1 (single isomer, unassigned) [I-709] , can you help?
< 0.5 µM

Looking for the measured IC50 of CC(C)(O)c1cc(CN(C(=O)C(OCCC(F)F)c2ccc(-c3ccc(F)c(F)c3)cc2F)[C@@H]2C=CS(=O)(=O)C2)ccn1 (single isomer, unassigned) [I-812] , can you help?
< 0.5 µM
